// reported IC50 per item
MEASURED TARGET: Fc portion of human IgG
Construct: fused on or other part: horseradish peroxidase chemically conjugated to the IgG (detection label)
METHOD: Competitive protein A binding ELISA
EXPERIMENTAL CONDITIONS: inhibition of binding of protein A to HRP-human IgG; assay in PBS

- SAMPLE SMILES: "COc1ccc(Nc2nc(N)nc(Nc3cccc(N)c3)n2)cc1"
  MEASURED TARGET: "Fc portion of human IgG"
  IC50, nM: 292
- SAMPLE SMILES: "Nc1cccc(Nc2nc(NCCO)nc(Nc3cccc(N)c3)n2)c1"
  MEASURED TARGET: "Fc portion of human IgG"
  IC50, nM: 42
- SAMPLE SMILES: "Nc1cccc(Nc2nc(Nc3cccc(N)c3)nc(NC3CC3)n2)c1"
  MEASURED TARGET: "Fc portion of human IgG"
  IC50, nM: 38
- SAMPLE SMILES: "Nc1ccc(CCNc2nc(NCc3ccc(N)cc3)nc(Nc3cccc(N)c3)n2)cc1"
  MEASURED TARGET: "Fc portion of human IgG"
  IC50, nM: 85
- SAMPLE SMILES: "COc1ccc(Nc2nc(NCCN)nc(Nc3cccc(N)c3)n2)cc1"
  MEASURED TARGET: "Fc portion of human IgG"
  IC50, nM: 415
- SAMPLE SMILES: "NCCCCCCNc1nc(Nc2cccc(N)c2)nc(Nc2cccc(N)c2)n1"
  MEASURED TARGET: "Fc portion of human IgG"
  IC50, nM: 68
- SAMPLE SMILES: "COc1cccc(Nc2nc(NCCO)nc(Nc3cccc(N)c3)n2)c1"
  MEASURED TARGET: "Fc portion of human IgG"
  IC50, nM: 63
- SAMPLE SMILES: "COc1cccc(Nc2nc(NCCN)nc(Nc3cccc(N)c3)n2)c1"
  MEASURED TARGET: "Fc portion of human IgG"
  IC50, nM: 306
- SAMPLE SMILES: "COc1cccc(Nc2nc(Nc3cccc(N)c3)nc(Nc3cccc(OC)c3)n2)c1"
  MEASURED TARGET: "Fc portion of human IgG"
  IC50, nM: 469
- SAMPLE SMILES: "Nc1cccc(Nc2nc(NCCO)nc(NCc3cccc(F)c3)n2)c1"
  MEASURED TARGET: "Fc portion of human IgG"
  IC50, nM: 222
- SAMPLE SMILES: "NCCCCCCNc1nc(NCCc2ccc(N)cc2)nc(Nc2cccc(N)c2)n1"
  MEASURED TARGET: "Fc portion of human IgG"
  IC50, nM: 300
- SAMPLE SMILES: "Nc1cccc(CNc2nc(N)nc(Nc3cccc(N)c3)n2)c1"
  MEASURED TARGET: "Fc portion of human IgG"
  IC50, nM: 159
